Cited source: paper PMC10651481

molecular target: TDP-43 full-length (UniProt Q13148 1-414); assay: EMSA; EMSA: 10 mM HEPES pH 8.0, 50 mM KCl, 1 mM EDTA, 5% glycerol, 1 mM DTT, 40 U/ml RNase inhibitor, 4 C, 1 h; 20 fmol probe in 20 ul; 8% native PAGE; conditions: protein: recombinant; tags: MBP-6xHis (C-terminal as named TDP-43-MBP-6xHis); label: 5'-32P
Sequence (Q13148 whole entry): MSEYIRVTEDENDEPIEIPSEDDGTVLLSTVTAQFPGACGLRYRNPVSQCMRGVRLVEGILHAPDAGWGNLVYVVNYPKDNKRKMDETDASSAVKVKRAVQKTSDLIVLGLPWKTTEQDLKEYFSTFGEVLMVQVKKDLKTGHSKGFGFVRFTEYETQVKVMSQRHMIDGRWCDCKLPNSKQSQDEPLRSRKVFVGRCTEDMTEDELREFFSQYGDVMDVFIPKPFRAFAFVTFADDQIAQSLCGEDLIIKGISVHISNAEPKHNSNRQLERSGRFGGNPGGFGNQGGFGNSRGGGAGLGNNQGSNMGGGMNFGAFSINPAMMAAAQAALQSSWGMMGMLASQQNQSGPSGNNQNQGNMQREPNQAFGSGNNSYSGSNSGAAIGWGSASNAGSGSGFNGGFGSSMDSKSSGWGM

| binder | Kd [nM] |
| --- | --- |
| CAGCAGCAGCAGCAGCAGCAG (ssRNA) [(CAG)7-0m1A] | 146 |
| CAGCAGCAGCAGCAGCAGCAG (ssRNA, m1A at position 11) [(CAG)7-1m1A] | 70 |
